Below, each entry is listed alongside its reported HIS4 meiotic recombination assay sensitivity score.
system: S. cerevisiae NKY1551 his4x/his4B, sporulating; assay: HIS4 meiotic recombination assay sensitivity score (z-score vs DMSO controls); higher = stronger inhibition of sporulation/recombination, active = hit call of the paper;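 also: active if sensitivity score above 5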
Counter-ions that a name gives are not always drawn.
Write the value as a bare number.

Input: Look up HIS4 meiotic recombination assay sensitivity score: COc1ccc(CN2CCN(C(c3ccc(F)cc3)c3ccc(F)cc3)CC2)c(OC)c1OC [Lomerizine dihydrochloride] (stock concentration (mM, diluted 1:100): 8.7)
Output: -0.52

Input: Same for CCC(C)(C)N=C(NC#N)Nc1cccnc1 [Tocris-1355] (stock concentration (mM, diluted 1:100): 9.9)
Output: -1.39

Input: Same for NNCCc1ccccc1 [Phenelzine sulfate salt] (stock concentration (mM, diluted 1:100): 10)
Output: -3.78
